Where do the numbers come from? From PubChem BioAssay.

# experimental_details: JC-1 mitochondrial signal, unstimulated MM1S myeloma – cell-based, JC-1 fluorescence, 24 h, 100 nL compound, profiling panel (AID 1170); note: test concentration not given here
# conditions: MM1S mitochondrial potential, higher = more signal
measure_name: z-score
Hey, just send me the number, nothing else.

Sample records with z-score:
CN1C(=O)C2C=CC(C(O)c3ccc(Br)cc3)N(Nc3ccccc3)C2C1=O (centres undefined): -0.425
Cc1c(NC(=O)/C(C#N)=C/C=C/c2ccccc2)c(=O)n(-c2ccccc2)n1C: 0.56
[N-]=[N+]=Nc1ccccc1C[C@]1(C(=O)N2CCCCC2)N=C(c2ccc(OCCCO)cc2)O[C@H]1c1ccccc1N=[N+]=[N-]: -2.64
COCC1C2CC[C@H]3C(OCc4ccc(F)cc4C(F)(F)F)OC[C@]4(C)[C@H]3C2=C(CN4C(=O)OC(C)(C)C)[C@H](C)C1COC (some centres undefined): -1.42
C=CCC(OC(C)=O)[C@@H]1[C@@H](N(Cc2ccc(-c3cccc(C(F)(F)F)c3)o2)C(=O)Cc2ccc(OC)cc2)c2cc(OCCCO)ccc2N1C(=O)Cc1ccc(OC)cc1 (some centres undefined): -0.757
O=C(NCC(O)CO)[C@]1(CCS(=O)(=O)c2ccccc2)N=C(c2ccc(OCCCO)cc2)O[C@@H]1c1ccccc1 (some centres undefined): -0.824

Next compound, z-score to be filled in.
Q: Given the compound O=C1O[C@H](c2ccccc2)[C@H](c2ccccc2)N2[C@H]1[C@@H](C(=O)NC[C@H](O)c1ccccc1)[C@]1(C(=O)Nc3ccc(C#CC4(O)CCCCCC4)cc31)[C@H]2c1ccccc1OCCO , write its reported z-score.
Ans: -2.01

====

# experimental_details: basal CRE-LacZ reporter activity in PC12 – cell-based, unstimulated, primary screen (AID 1145)
# conditions: no forskolin, luminescence, 4.5 h, higher = more signal, called active from +8 up or from −8 down
measure_name: z-score
Hey, just send me the number, nothing else.

C=C[C@H](OC)[C@@H](OC(=O)Nc1ccc(SC)cc1)c1ccc(OCCO)cc1: 1.55
CCCCCCCCCCC(O)C1C=CC2C(=O)N(c3ccccc3)C(=O)C2N1Nc1ccc([N+](=O)[O-])cc1 (stereo not given): 0.285
O=C(N1CCCCC1)[C@]1(CCS(=O)(=O)c2ccccc2)N=C(c2ccc(OCCCO)cc2)O[C@@H]1c1ccccc1: 1.16
COc1ccc(C(=O)Nc2cccc(CN3C(=O)[C@@]4(O[C@@H](CC(=O)N5Cc6ccccc6C[C@H]5CO)[C@H]([Si](C)(C)c5ccc(OC)cc5)[C@H]4C)c4ccccc43)c2)cc1: 4.45
CN(C)CCCC[C@@H]1NC(=O)[C@H]2C[C@@H](C(=O)NCCCCCNC(=O)CS)[C@@H](c3ccc(O)cc3)N2C1=O: 0.683

Q: Given the compound [N-]=[N+]=NCc1ccccc1C[C@]1(C(=O)NCc2ccccc2)COC(c2ccc(OCCCO)cc2)=N1 , write its reported z-score.
Ans: 1.72

====

# subject_of_test: NADPH oxidase 4 (Homo sapiens) (UniProt Q9NPH5)
# Sequence (Q9NPH5 whole entry, looked up): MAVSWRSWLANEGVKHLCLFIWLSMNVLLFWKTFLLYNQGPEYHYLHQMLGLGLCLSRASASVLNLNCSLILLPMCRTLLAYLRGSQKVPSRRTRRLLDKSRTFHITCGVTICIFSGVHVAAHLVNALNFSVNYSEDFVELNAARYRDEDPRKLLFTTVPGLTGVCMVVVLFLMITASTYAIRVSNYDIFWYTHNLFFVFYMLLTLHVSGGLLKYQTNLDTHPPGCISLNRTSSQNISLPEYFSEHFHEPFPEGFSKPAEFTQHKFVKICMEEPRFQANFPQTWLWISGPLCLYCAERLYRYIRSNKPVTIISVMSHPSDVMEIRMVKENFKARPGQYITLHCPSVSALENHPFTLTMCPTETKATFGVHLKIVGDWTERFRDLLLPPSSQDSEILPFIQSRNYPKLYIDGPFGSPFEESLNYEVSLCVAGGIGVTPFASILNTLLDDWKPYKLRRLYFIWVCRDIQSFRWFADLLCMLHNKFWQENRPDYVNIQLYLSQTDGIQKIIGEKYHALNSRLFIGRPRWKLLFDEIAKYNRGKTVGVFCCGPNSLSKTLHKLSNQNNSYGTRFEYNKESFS
# experimental_details: compounds shifting NOX4 Amplex Red fluorescence – cell-based, HEK293-NOX4, tetracycline-induced, NOX inhibitor project, primary screen (AID 1160)
# conditions: HEK293-NOX4, Amplex Red H2O2 fluorescence, 45 min; higher = more signal, called active from +8 up or from −8 down
z-score values for the molecules below.
Hey, just send me the number, nothing else.

Sample records with z-score:
C=CCC(OC(C)=O)[C@@H]1[C@@H](N(Cc2cc3ccccc3o2)C(=O)c2cccc3ccccc23)c2cc(OCCCO)ccc2N1C(=O)Cc1ccc(OC)cc1 (some centres not stated): -0.428
O=C1C2C=CC(C(O)c3ccc(Br)cc3)N(n3cnnc3)C2C(=O)N1Cc1ccccc1 (configuration not stated): 2.59
CN(C)CCCC[C@@H]1NC(=O)[C@@H]2C[C@H](C(=O)NCCCCCCN)[C@H](c3ccc(O)cc3)N2C1=O: -0.964
COC(=O)[C@@]1(Cc2ccccc2)[C@H]2c3cc(C(=O)N(C)C)n(Cc4cc(F)c(F)c(F)c4)c3C[C@H]2CN1C(=O)c1ccccc1: 1.57
COCC1C2CC[C@H]3C(OCc4ccc(F)cc4C(F)(F)F)OC[C@]4(C)[C@H]3C2=C(CN4C(=O)OC(C)(C)C)[C@H](C)C1COC (some centres not stated): -0.934
O=C1OCCC=C[C@H]2OC34C=CCN(c5ccc6ccccc6c5)C(=O)[C@H]3N(CCCCCCO)C(=O)[C@@H]4C12 (some centres not stated): 0.441

Q: Given the molecule O=C1OCC=C[C@H]2OC34C=CCN(c5ccc6ccccc6c5)C(=O)[C@H]3N(CCO)C(=O)[C@@H]4[C@@H]12 (some centres not stated) , write its reported z-score.
Ans: 1.05

====

# subject_of_test: Left-right determination factor 2 (Homo sapiens)
# experimental_details: small molecules binding LEFTY2 protein – biochemical, small-molecule microarray, 635 nm fluorescence scan, primary screen (AID 1110)
# conditions: higher = more signal
measure_name: composite z-score
Hey, just send me the number, nothing else.

Sample records with composite z-score:
CCCCC(=O)N(Cc1ccccc1F)[C@@H]1CC(C(=O)NCCO)=C[C@H](Oc2c(I)cc(CO)cc2OC)[C@H]1O: 1.29
CN1C(=O)C2C=CC(C(O)C3=C[C@H]4C[C@@H](C3)C4(C)C)N(Nc3ccc([N+](=O)[O-])cc3[N+](=O)[O-])C2C1=O (stereo partly specified): 0.258
[N-]=[N+]=NCc1ccccc1C[C@]1(C(=O)NCc2ccccc2)COC(c2ccc(OCCCO)cc2)=N1: -0.0623
COC(=O)C(CC#Cc1ccc2c(c1)[C@]1(C(=O)N2)[C@H](C(=O)N2CCCCCCC2)[C@H]2C(=O)O[C@H](c3ccccc3)[C@H](c3ccccc3)N2[C@@H]1c1ccccc1OCCO)C(=O)OC: 1.8
C=CCC(OC(C)=O)[C@@H]1[C@@H](N(Cc2ccc(-c3ccccc3)cc2)C(=O)c2ccc(C)cc2)c2cc(OCCCO)ccc2N1C(=O)c1ccc2ccccc2n1 (stereo partly specified): 0.755
COC(=O)c1c(CC[C@@H](CO)NC(=O)Nc2ncn[nH]2)oc(C(=O)Cc2ccccc2)c1C(=O)OC: 0.506
NC(=O)[C@]1(Cc2ccccc2)N=C(c2ccc(OCCCO)cc2)O[C@@H]1c1ccccc1: -1.02
CC(=O)NCCCC[C@@H]1NC(=O)[C@@H]2C[C@H](C(=O)NCCCCCC[N+](C)(C)C)[C@H](c3cccc(OCCO)c3)N2C1=O: 0.996
C[N+](C)(C)CCCC[C@@H]1NC(=O)[C@@H]2C[C@H](C(=O)NCCCCCCNC(=O)CS)[C@H](c3cccc(OCCO)c3)N2C1=O: 0.382
CC(C)C(=C=CC[C@H](O)c1ccccc1OCCO)CCO: -0.378

Q: Given the compound Cc1ccccc1/C=C/C=O , write its reported composite z-score.
Ans: -0.615

Q: Given the compound [N-]=[N+]=NCc1ccccc1[C@H]1OC(c2ccc(OCCCO)cc2)=N[C@@]1(Cc1ccccc1)C(=O)O , write its reported composite z-score.
Ans: 0.115

Q: Given the compound COc1ccc([Si](C)(C)[C@H]2[C@H](CC(=O)N3CCC[C@H]3CO)O[C@@]3(C(=O)N(c4ccccc4)c4ccccc43)[C@@H]2C)cc1 , write its reported composite z-score.
Ans: 0.301

Q: Given the compound CCCC[C@@H]1C[C@H]1[C@@H](NC(=O)c1ccccc1)c1ccccc1 , write its reported composite z-score.
Ans: -0.137

Q: Given the compound C=CC[C@]1(C(=O)O)N=C(c2ccc(OCCCO)cc2)O[C@H]1c1ccccc1CN=[N+]=[N-] , write its reported composite z-score.
Ans: -0.46

Q: Given the compound C=CC[C@@]1(C(=O)NCc2ccccc2)N=C(c2ccc(OCCCO)cc2)O[C@@H]1c1ccccc1CN=[N+]=[N-] , write its reported composite z-score.
Ans: -0.511

====

# experimental_details: changes in parasitized red cell lysis, either direction – P. falciparum Indochina, OD700, 3 h, PSAC antagonist project, primary screen (AID 1156)
# conditions: P. falciparum-infected erythrocytes, osmotic lysis, higher = more signal, called active from +8 up or from −8 down
measure_name: z-score
Hey, just send me the number, nothing else.

Sample records with z-score:
COC(=O)[C@@]1(Cc2ccc(F)cc2)[C@H]2c3cc(C(=O)N4CCCC4)n(Cc4ccc(Cl)c(C(F)(F)F)c4)c3C[C@H]2CN1C(=O)c1ccccc1: 0.923
CN(C)CCCC[C@@H]1NC(=O)[C@H]2C[C@@H](C(=O)NCCCCCNC(=O)CS)[C@@H](c3ccc(O)cc3)N2C1=O: -0.988
O=C(NCc1ccccc1)[C@@H]1c2ccccc2C(=O)N(C2CCCCC2)[C@H]1c1ccc(CO)cc1: 0.473

Q: Given the compound Cc1ccc(S[C@]2(C(=O)NCC(C)C)CC(=O)N(Cc3ccccc3)[C@@H]2c2ccc(CO)cc2)cc1 , write its reported z-score.
Ans: -0.111
